Tested on: purified recombinant BGL-GYP17
Assay Method Text: Effects of metal ions and chemical agents on ginsenoside glycosidase activity (pNPGlc substrate)
Type: biochemical, Terrabacter ginsenosidimutans Gsoil 3082
Condition: 10 mM metal ion or reagent, 30 min at room temperature, pNPGlc substrate; 100% = 44.3 U/mg
Measurement Name: Relative activity (%)

Compound: [Cl][Mn][Cl] [MnCl2]
Relative activity (%): 96.9
//
Compound: [Cl-].[Cl-].[Zn+2] [ZnCl2]
Relative activity (%): 72.8
//
Compound: O[C@@H](CS)[C@@H](O)CS [DTT]
Relative activity (%): 96.6

* * *

Test system: recombinant Bgl-gyp17
Assay Method Text: Enzymatic hydrolysis of PPD-type ginsenosides (TLC, HPLC, NMR)
Type: biochemical, Terrabacter ginsenosidimutans Gsoil 3082
Condition: 0.2 U enzyme, 50 mM sodium phosphate pH 7.0, 37° C.; hydrolysis of glucoses at C-3
Measurement Name: conversion of the ginsenoside by the enzyme (product)

Compound: CC(C)=CCC[C@](C)(O[C@@H]1O[C@H](CO[C@@H]2O[C@@H](CO)[C@H](O)[C@H]2O)[C@@H](O)[C@H](O)[C@H]1O)[C@H]1CC[C@]2(C)[C@@H]1[C@H](O)C[C@@H]1[C@@]3(C)CC[C@H](O[C@@H]4O[C@H](CO)[C@@H](O)[C@H](O)[C@H]4O)C(C)(C)[C@@H]3CC[C@]12C
Readout Value: C-Mc

Compound: CC(C)=CCC[C@](C)(O[C@@H]1O[C@H](CO[C@@H]2O[C@H](CO)[C@@H](O)[C@H](O)[C@H]2O)[C@@H](O)[C@H](O)[C@H]1O)[C@H]1CC[C@]2(C)[C@@H]1[C@H](O)C[C@@H]1[C@@]3(C)CC[C@H](O)C(C)(C)[C@@H]3CC[C@]12C [gyp LXXV, gypenoside LXXV]
Readout Value: C—K

Compound: CC(C)=CCCC(C)(OC1OC(COC2OCC(O)C(O)C2O)C(O)C(O)C1O)C1CCC2(C)C1C(O)CC1C3(C)CCC(OC4OC(CO)C(O)C(O)C4O)C(C)(C)C3CCC12C (centres unmarked)
Readout Value: C—Y

* * *

Tested on: Bgl-gyp17
Assay Method Text: Substrate preference with chromogenic oNP and pNP glycosides
Assay type: biochemical, Terrabacter ginsenosidimutans Gsoil 3082
Condition: 2.0 mM substrate, 50 mM sodium phosphate pH 7.0, 37° C.; activity on ONPGlu = 100%
Protocol: 1 activity unit was defined as the release of o-nitrophenol or p-nitrophenol per minute. For analysis of substrate preference, 2.0 mM chromogenic oNP and pNP (p-nitrophenyl) were used as the substrates, and incubated at 37° C. for 5 minutes. […]
Measurement Name: Relative activity (%)
Reply with just the number (in %).

Use the examples below as a reference point.
Compound: N[C@H]1[C@H](Oc2ccc([N+](=O)[O-])cc2)O[C@H](CO)[C@@H](O)[C@@H]1O [pNP-β-D-glucosaminide]
Relative activity (%): 0
--
Compound: O=[N+]([O-])c1ccccc1O[C@@H]1O[C@H](CO)[C@@H](O)[C@H](O)[C@H]1O [oNP-β-D-glucopyranoside]
Relative activity (%): 100.00
--
Compound: O=[N+]([O-])c1ccc(O[C@@H]2O[C@H](CO)[C@@H](O)[C@H](O)[C@@H]2O)cc1 [pNP-β-D-mannopyranoside]
Relative activity (%): 0

Item: C[C@H]1O[C@@H](Oc2ccccc2[N+](=O)[O-])[C@H](O)[C@@H](O)[C@H]1O [oNP-β-D-fucopyranoside] | Relative activity (%): 15.88

Consider O=[N+]([O-])c1ccccc1O[C@H]1O[C@H](CO)[C@H](O)[C@H](O)[C@H]1O [oNP-α-D-galactopyranoside] . Its measured Relative activity (%) is 0

get_value(item= O=[N+]([O-])c1ccc(O[C@@H]2O[C@H](CO)[C@H](O)[C@H](O)[C@H]2O)cc1 [pNP-β-D-glactopyranoside] , readout=Relative activity (%)) returns 0

Entry under test: O=[N+]([O-])c1ccc(O[C@@H]2OC[C@@H](O)[C@H](O)[C@H]2O)cc1 [pNP-β-D-xylopyranoside] . Its Relative activity (%) was 0

The compound listed as O=[N+]([O-])c1ccc(O[C@@H]2O[C@H](CO)[C@@H](O)[C@H](O)[C@H]2O)cc1 [pNP-β-D-glucopyranoside, p-nitrophenyl-β-D-glucopyranoside] shows Relative activity (%) equal to 89.52

Noted for O=[N+]([O-])c1ccc(O[C@H]2O[C@H](CO)[C@@H](O)[C@H](O)[C@H]2O)cc1 [pNP-α-D-glucopyranoside] : its Relative activity (%) reads 1.12
